Biological target: T1, P3mSN
T1 chain: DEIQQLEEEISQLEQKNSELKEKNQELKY
Test: two-hybrid library CCNG1;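 also: natural log of median RNA to DNA barcode read ratio; higher means stronger binding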
Provide the reported interaction score of each item.
// no unit, no text: just the number

The reported interaction score of the binder DEIRQLEQENSQLERENQRLEQEIYQLER [P1mSN] was -1.95

The reported interaction score of the binder DKNEQLKEKISELKEKIEQLKEENQSLEY [P12mSN] was -1.72

The reported interaction score of the binder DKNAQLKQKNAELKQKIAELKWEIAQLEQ [4H4073-bA] was -4.32

The reported interaction score of the binder DEIQQLEEEISQLEQKNSELKEKNQELKY [P3mSN] was -0.0204

The reported interaction score of the binder DENQSLEQEISQLEQEIQQLEQKNSELKY [P11mSN] was -0.972

The reported interaction score of the binder DKNSQLKEENSQLEEKIEQLKEKIQELKY [P10mSN] was -0.696

The reported interaction score of the binder DKIEELKEKNSQLKEKNEELKQKIYELKE [P2mSN] was -0.831

Origin of values: paper PMC10397247
